The values you see were collected from the CheMixHub viscosity set.

# STUDY CONDITIONS: 298.15 K; 101 kPa
As shown below, each of these molecules has a reported log10(viscosity) value.
QUANTITY MEASURED: log10(viscosity) (log10 of the value in mPa·s)

>>> print(df.to_string())
                                   molecule  value
0              CCOC(=O)Cn1cc[n+](C)c1.[Cl-]   2.54
1                                CCCCC(=O)O   0.29
2  CC(=O)[O-].C[N+]1(CC2CO2)CCCC1=O (configuration not stated)   0.74
3   CCCCCCCC[N+](C)(CCCCCCCC)CCCCCCCC.[Cl-]   3.38
4                                 Cc1cccnc1  -0.06
5  CCn1cc[n+](C)c1.O=C([O-])C(F)(F)C(F)(F)C(F)(F)C(F)(F)F   2.03
6                CCCC[n+]1ccc(C)cc1.N#C[S-]   1.93

* * *

# EXPERIMENT SUMMARY: xn = mol fraction of the nth substance listed
# STUDY CONDITIONS: 303.15 K; 101 kPa; x1 = 0.2
± gives the uncertainty stated by the source.
As shown below, each of these molecules has a reported viscosity value.
QUANTITY MEASURED: viscosity

In [3]: df
Out[3]:
                                   molecule  quantity_measured               value
0                   Oc1cccc2ccccc12 + CCCCO          viscosity   3.61 ± 0.08 mPa·s
1  CCCC[N+](CCCC)(CCCC)CCCC.[Br-] + CC(O)CO          viscosity      71.6 ± 1 mPa·s
2     CCCC[N+](CCCC)(CCCC)CCCC.[Br-] + OCCO          viscosity    53.8 ± 0.5 mPa·s
3                       NCCNCCN + CCCCCCCCO          viscosity    7.3 ± 0.16 mPa·s
4                    Oc1cccc2ccccc12 + CCCO          viscosity  3.26 ± 0.073 mPa·s

* * *

# EXPERIMENT SUMMARY: xn = mol fraction of the nth substance listed
# STUDY CONDITIONS: 313.15 K; 101 kPa; x1 = 0.2
QUANTITY MEASURED: viscosity (mPa·s)

>>> print(df.to_string())
                                   molecule  quantity_measured  value
0  CCCC[N+](CCCC)(CCCC)CCCC.[Br-] + CC(O)CO          viscosity   42.1
1     CCCC[N+](CCCC)(CCCC)CCCC.[Br-] + OCCO          viscosity   31.2
2                   Oc1cccc2ccccc12 + CCCCO          viscosity  2.745
3                    Oc1cccc2ccccc12 + CCCO          viscosity  2.396

* * *

As shown below, each of these compounds has a reported viscosity value.
# EXPERIMENT SUMMARY: xn = mol fraction of the nth substance listed
# STUDY CONDITIONS: 298.15 K; 101 kPa; x1 = 0.2
QUANTITY MEASURED: viscosity (mPa·s)

In [3]: df
Out[3]:
                                   compound  unit_tag  value
0  CCCC[N+](CCCC)(CCCC)CCCC.[Br-] + CC(O)CO     mPa·s   96.3
1     CCCC[N+](CCCC)(CCCC)CCCC.[Br-] + OCCO     mPa·s     69
2                              CCCCO + CCCO     mPa·s  2.082
3                       NCCNCCN + CCCCCCCCO     mPa·s  9.198

* * *

As shown below, each of these molecules has a reported viscosity value.
# EXPERIMENT SUMMARY: xn = mol fraction of the nth substance listed
# STUDY CONDITIONS: 323.15 K; 101 kPa; x1 = 0.2
QUANTITY MEASURED: viscosity (mPa·s)

>>> df
                                   molecule  value
0                    Oc1cccc2ccccc12 + CCCO  1.954
1     CCCC[N+](CCCC)(CCCC)CCCC.[Br-] + OCCO   21.7
2  CCCC[N+](CCCC)(CCCC)CCCC.[Br-] + CC(O)CO   26.6
3                   Oc1cccc2ccccc12 + CCCCO   2.14

* * *

# EXPERIMENT SUMMARY: xn = mol fraction of the nth substance listed
# STUDY CONDITIONS: 323.15 K; 100 kPa; x1 = 0.2
QUANTITY MEASURED: viscosity (mPa·s)

In [3]: df
Out[3]:
                                   compound  quantity_measured  value
0     CCCC[N+](CCCC)(CCCC)CCCC.[Br-] + OCCO          viscosity  61.85
1  CCCC[N+](CCCC)(CCCC)CCCC.[Br-] + OCCOCCO          viscosity  92.86
2  CCCC[N+](CCCC)(CCCC)CCCC.[Br-] + OCCOCCOCCO          viscosity  101.6
3                             [F-].[K+] + O          viscosity  2.021
